Cited source: patent US20260209345A1

Some binders, each annotated with its measured IC50.
molecular target: T1, recombinant LILRB1 ECD (human, UniProt Q8NHL6 24-461); assay: ELISA, LILRB1 ECD binding to HLA-G-Fc
T1 construct: also called biotinylated LILRB1 ECD
T1 sequence (Q8NHL6 24-461 limits assumed): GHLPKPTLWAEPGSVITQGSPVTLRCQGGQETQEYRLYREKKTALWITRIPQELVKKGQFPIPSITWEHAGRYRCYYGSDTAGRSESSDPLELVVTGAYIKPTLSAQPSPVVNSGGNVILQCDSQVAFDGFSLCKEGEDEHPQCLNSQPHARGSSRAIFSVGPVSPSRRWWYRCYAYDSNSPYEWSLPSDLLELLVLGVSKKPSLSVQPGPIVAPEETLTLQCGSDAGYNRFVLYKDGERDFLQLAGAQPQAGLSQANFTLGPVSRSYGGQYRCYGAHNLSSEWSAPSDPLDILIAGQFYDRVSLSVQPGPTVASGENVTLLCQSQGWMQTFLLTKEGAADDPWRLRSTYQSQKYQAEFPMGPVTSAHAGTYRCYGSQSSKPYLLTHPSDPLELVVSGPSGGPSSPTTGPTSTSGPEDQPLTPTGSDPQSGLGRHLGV
Quick note: give the figure in nM, leave out the unit.

Please review the following examples before continuing.
A-039 (antibody, V domains shown, tested as IgG) VH: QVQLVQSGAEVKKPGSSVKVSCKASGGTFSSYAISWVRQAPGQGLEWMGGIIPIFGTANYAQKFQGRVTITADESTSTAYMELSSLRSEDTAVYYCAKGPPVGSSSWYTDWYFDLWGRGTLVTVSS VL: SYELTQPPSVSVSPGQTASITCSGDKLGDKYASWYQQKPGQSPVLVIYQDSKRPSGIPERFSGSNSGNTATLTISGTQAEDEADYYCALYGGGHTVVFGGGTKLTVL : 2
A-040 (antibody, V domains shown, tested as IgG) VH: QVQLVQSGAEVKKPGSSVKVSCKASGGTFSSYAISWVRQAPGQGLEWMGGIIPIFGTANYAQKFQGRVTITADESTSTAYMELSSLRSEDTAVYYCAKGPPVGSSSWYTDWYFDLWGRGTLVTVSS VL: SYELTQPPSVSVSPGQTASITCSGDKLGDKYASWYQQKPGQSPVLVIYQDSKRPSGIPERFSGSNSGNTATLTISGTQAEDEADYYCSLYGPAHTGVFGGGTKLTVL : 2.1
A-016 (antibody, V domains shown, tested as IgG) VH: QVQLVQSGAEVKKPGSSVKVSCKASGGTFSSYAFNWVRQAPGQGLEWMGSIIPIFKTANYAQKFQGRVTITADESTSTAYMELSSLRSEDTAVYYCAKDLGTYSSGWPYYYGMDVWGQGTTVTVSS VL: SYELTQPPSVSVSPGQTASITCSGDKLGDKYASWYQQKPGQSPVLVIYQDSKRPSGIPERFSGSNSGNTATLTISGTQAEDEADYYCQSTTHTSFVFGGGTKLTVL : 4.4
A-035 (antibody, V domains shown, tested as IgG) VH: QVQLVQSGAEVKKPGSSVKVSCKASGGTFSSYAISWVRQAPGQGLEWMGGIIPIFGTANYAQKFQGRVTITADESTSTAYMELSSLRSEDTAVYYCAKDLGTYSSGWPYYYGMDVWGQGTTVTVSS VL: SYELTQPPSVSVSPGQTASITCSGDKLGDKYASWYQQKPGQSPVLVIYQDSKRPSGIPERFSGSNSGNTATLTISGTQAEDEADYYCQLSHGTLLVFGGGTKLTVL : 1.7

Okay, next one:
Enquiry: Recorded IC50 of A-026 (antibody, V domains shown, tested as IgG) VH: QVQLVQSGAEVKKPGSSVKVSCKASGYTFTSHGMSWVRQAPGQGLEWMGGILPIFHTATYAQKFQGRVTITADESTSTAYMELSSLRSEDTAVYYCAKGPPVGSSSWYTDWYFDLWGRGTLVTVSS VL: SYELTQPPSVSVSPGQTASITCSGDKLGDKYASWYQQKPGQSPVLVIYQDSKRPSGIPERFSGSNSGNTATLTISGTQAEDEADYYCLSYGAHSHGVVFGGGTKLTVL , please.
Return: 6.1
